What total protein half-life in vivo was measured for each of the following?
Assay: total protein half-life in vivo (active degradation + dilution); higher = more stable protein
Details: E. coli NCM3722 delta-hslV; growth: N-lim chemostat; doubling time 6 h
Give bare numbers, in h.

>  <PRIMARY SEQUENCE>
MEISFTRVALLAAALFFVGCDQKPQPAKTHATEVTVLEGKTMGTFWRASIPGIDAKRSAELKEKIQTQLDADDQLLSTYKKDSALMRFNDSQSLSPWPVSEAMADIVTTSLRIGAKTDGAMDITVGPLVNLWGFGPEQQPVQIPSQEQIDAMKAKTGLQHLTVINQSHQQYLQKDLPDLYVDLSTVGEGYAADHLARLMEQEGISRYLVSVGGALNSRGMNGEGLPWRVAIQKPTDKENAVQAVVDINGHGISTSGSYRNYYELDGKRLSHVIDPQTGRPIEHNLVSVTVIAPTALEADAWDTGLMVLGPEKAKEVVRREGLAVYMITKEGDSFKTWMSPQFKSFLVSEKN [P0AB85]

>  <MEASURED NUMBER>
5.8

$$$$

# context switch: different sequence, same total protein half-life in vivo
// returns reported total protein half-life in vivo for input MKVLTVFGTRPEAIKMAPLVHALAKDPFFEAKVCVTAQHREMLDQVLKLFSIVPDYDLNIMQPGQGLTEITCRILEGLKPILAEFKPDVVLVHGDTTTTLATSLAAFYQRIPVGHVEAGLRTGDLYSPWPEEANRTLTGHLAMYHFSPTETSRQNLLRENVADSRIFITGNTVIDALLWVRDQVMSSDKLRSELAANYPFIDPDKKMILVTGHRRESFGRGFEEICHALADIATTHQDIQIVYPVHLNPNVREPVNRILGHVKNVILIDPQEYLPFVWLMNHAWLILTDSGGIQEEAPSLGKPVLVMRDTTERPEAVTAGTVRLVGTDKQRIVEEVTRLLKDENEYQAMSRAHNPYGDGQACSRILEALKNNRISL
4.56
